Kindly state Φfl for each of the entries shown.
- Test Summary: Fluorescence quantum yield in sodium phosphate buffer (pH 9), rhodamine B as fluorescence standard
- Type: physicochemical
- Experimental Setup: standard rhodamine B (Φfl=0.65) in ethanol
- From the text: Relationship between the fluorescence quantum yield and the oxidation potential of the benzene ring moiety of 2-Me TokyoMagenta synthesized in Example 1 mentioned above, as well as 2,4-DiMe TokyoMagenta, 2,5-DiMe TokyoMagenta, 2-OMe TokyoMagenta, 2-OMe-5-Me TokyoMagenta, and 2,5-OMe TokyoMagenta of (a) to (e) mentioned above was investigated. […]

*Q* So what does the record say about Φfl for COc1ccc(C)cc1C1=C2C=CC(=O)C=C2[Si](C)(C)c2cc(O)ccc21 [2-OMe-5-Me, 2-Methoxy-5-methyl TokyoMagenta] ?
*A* 0.14

*Q* Look up Φfl for this molecule: COc1ccccc1C1=C2C=CC(=O)C=C2[Si](C)(C)c2cc(O)ccc21 [2-OMe, 2-Methoxy TokyoMagenta]
*A* 0.31

*Q* Param item = Cc1ccc(C)c(C2=C3C=CC(=O)C=C3[Si](C)(C)c3cc(O)ccc32)c1 [2,5-DiMe, 2,5-Dimethyl TokyoMagenta] ; retrieve measured Φfl.
*A* 0.44

*Q* Returns the measured Φfl for the input molecule. Input: Cc1ccc(C2=C3C=CC(=O)C=C3[Si](C)(C)c3cc(O)ccc32)c(C)c1 [2,4-DiMe, 2,4-Dimethyl TokyoMagenta]
*A* 0.41

*Q* Field request: Φfl | item: COc1ccc(OC)c(C2=C3C=CC(=O)C=C3[Si](C)(C)c3cc(O)ccc32)c1 [2,5-DiOMe, 2,5-Dimethoxy TokyoMagenta]
*A* 0

*Q* For Cc1ccccc1C1=C2C=CC(=O)C=C2[Si](C)(C)c2cc(O)ccc21 [2-Me TM, 2-Me TokyoMagenta] , what is its reported Φfl?
*A* 0.42
